Taken from the supplement of paper PMC7877785.

- Assay Overview: self-splicing fitness, log relative to wild type (ln ratio); higher = more splicing; Tetrahymena group I intron in knt gene, E. coli kanamycin selection, DiMSum; sequences stand for … in CUCUCU…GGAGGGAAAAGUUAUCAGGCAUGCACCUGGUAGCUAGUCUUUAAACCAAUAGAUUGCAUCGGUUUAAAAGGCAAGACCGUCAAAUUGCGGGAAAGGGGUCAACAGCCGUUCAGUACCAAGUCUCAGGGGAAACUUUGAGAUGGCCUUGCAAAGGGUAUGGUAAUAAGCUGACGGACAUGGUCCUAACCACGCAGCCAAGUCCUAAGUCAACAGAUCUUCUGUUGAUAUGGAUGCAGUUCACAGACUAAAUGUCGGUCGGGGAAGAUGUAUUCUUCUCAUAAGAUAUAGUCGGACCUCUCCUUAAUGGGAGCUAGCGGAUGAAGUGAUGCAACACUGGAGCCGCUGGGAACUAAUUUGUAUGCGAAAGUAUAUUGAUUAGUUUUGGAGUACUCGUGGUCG;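 also: selection with 25 µg/mL kanamycin versus none on LB agar overnight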
- Test Parameters: 30 °C
Decision: self-splicing fitness (ln) compared against -1; not below it gives True, below it gives False.

// below: answered sequences
GCCGAGCAAUAUUACGUGUA False
CUCCAGCAAUAUUACGGUUU False
UGGCAGCAAUAUUACGGGGA False
AAUCAGCAAUAUUACGCGUA True

Does the sequence "CGCUAGCAAUAUUACGAUCA" have recorded self-splicing fitness (ln) that is -1 or more?
True

Does the sequence "ACAAAGCAAUAUUACGUCUG" have recorded self-splicing fitness (ln) that is -1 or more?
False

Does the sequence "GUUUAGCAAUAUUACGCUCC" have recorded self-splicing fitness (ln) that is -1 or more?
False

Does the sequence "GGAUAGCAAUAUUACGCACA" have recorded self-splicing fitness (ln) that is -1 or more?
True

Does the sequence "UCUCAGCAAUAUUACGGUGG" have recorded self-splicing fitness (ln) that is -1 or more?
False

Does the sequence "GGGUAGCAAUAUUACGGCCG" have recorded self-splicing fitness (ln) that is -1 or more?
True

Does the sequence "UAAUAGCAAUAUUACGGAGG" have recorded self-splicing fitness (ln) that is -1 or more?
False

Does the sequence "AGUCAGCAAUAUUACGUGGU" have recorded self-splicing fitness (ln) that is -1 or more?
False

Does the sequence "GCUCAGCAAUAUUACGUUGU" have recorded self-splicing fitness (ln) that is -1 or more?
True

Does the sequence "CAGCAGCAAUAUUACGGACA" have recorded self-splicing fitness (ln) that is -1 or more?
False

Does the sequence "GGCCAGCAAUAUUACGGAAA" have recorded self-splicing fitness (ln) that is -1 or more?
False

Does the sequence "UGAAAGCAAUAUUACGUUUG" have recorded self-splicing fitness (ln) that is -1 or more?
False

====

- Assay Overview: self-splicing fitness, log relative to wild type (ln ratio); higher = more splicing; Tetrahymena group I intron in knt gene, E. coli kanamycin selection, DiMSum; sequences stand for … in CUCUCU…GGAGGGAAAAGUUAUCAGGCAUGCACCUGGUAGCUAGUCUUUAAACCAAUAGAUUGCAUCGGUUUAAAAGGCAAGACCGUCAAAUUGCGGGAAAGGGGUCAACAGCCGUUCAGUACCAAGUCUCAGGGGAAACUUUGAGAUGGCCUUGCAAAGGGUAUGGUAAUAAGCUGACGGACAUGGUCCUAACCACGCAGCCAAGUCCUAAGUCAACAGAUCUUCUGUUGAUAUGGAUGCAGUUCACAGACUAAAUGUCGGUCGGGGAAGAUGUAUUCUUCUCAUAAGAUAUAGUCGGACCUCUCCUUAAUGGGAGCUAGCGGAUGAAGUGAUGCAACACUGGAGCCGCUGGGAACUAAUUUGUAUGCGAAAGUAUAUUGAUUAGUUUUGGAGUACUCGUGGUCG
- Test Parameters: 37 °C
Decision: self-splicing fitness (ln) compared against -2; not below it gives label 1, below it gives label 0.

// below: answered sequences
AUGAAGCAAUAUUACGCUUG label 1
CAUAAGCAAUAUUACGGCAC label 0
AACUAGCAAUAUUACGGGCC label 1
AGGUAGCAAUAUUACGAUUA label 1
AAGUAGCAAUAUUACGGAAG label 0

Does the sequence "UUCGAGCAAUAUUACGAGAG" have recorded self-splicing fitness (ln) that is -2 or more?
label 0

Does the sequence "CAAGAGCAAUAUUACGUCAC" have recorded self-splicing fitness (ln) that is -2 or more?
label 0

Does the sequence "GGACAGCAAUAUUACGAGAA" have recorded self-splicing fitness (ln) that is -2 or more?
label 1
